# assay_target: Protein farnesyltransferase (Homo sapiens, UniProt P49354+P49356)
# measurement_description: Ratio of FTase IC50 values compared to compound 5
# Assay type: protein-complex assay
Criterion: Ratio meeting or surpassing 8. Met: 1.0. Not met: 0.0.

### Prompt Confirm if Ratio reported for the compound CSCC[C@@H](C(=O)O)N(C)C(=O)c1cccc2c(NC[C@@H](N)CS)cccc12 is 8 or above.
### Response 1.0

### Prompt Check this compound for Ratio at or above 8: CSCC[C@H](NCc1cccc2c(NC[C@@H](N)CS)cccc12)C(=O)O
### Response 1.0

### Prompt Dear colleague, could you confirm whether CSCC[C@H](/N=C(\S)c1cccc2c(NC[C@@H](N)CS)cccc12)C(=O)O has Ratio at or above 8?
### Response 0.0

### Prompt Please tell me: is the compound COC(=O)[C@H](CCSC)NC(=O)c1cccc2c(NC[C@@H](N)CS)cccc12 at or over 8 in terms of Ratio?
### Response 1.0

### Prompt Could you please find out whether CSCC[C@H](NC(=O)c1cccc2c(NC[C@@H](N)CS)cccc12)C(=O)O has Ratio that meets 8 or exceeds it?
### Response 0.0
